- Target of assay: hPPARγ receptor (Homo sapiens, UniProt P37231)
- Construct: expressed in transfected cells; host or cells: CV-1 (African Green Monkey kidney, ATCC CCL-70)
- Sequence (P37231 200-503): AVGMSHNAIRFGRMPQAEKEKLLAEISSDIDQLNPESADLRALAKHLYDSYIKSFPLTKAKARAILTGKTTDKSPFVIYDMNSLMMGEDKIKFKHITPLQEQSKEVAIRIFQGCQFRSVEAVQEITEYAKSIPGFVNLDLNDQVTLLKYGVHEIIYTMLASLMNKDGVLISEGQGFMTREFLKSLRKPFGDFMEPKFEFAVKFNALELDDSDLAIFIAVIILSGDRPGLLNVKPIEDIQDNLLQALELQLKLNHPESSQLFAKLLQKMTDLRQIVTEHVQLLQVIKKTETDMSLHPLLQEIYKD
- Assay summary: PPARγ Cell-based luciferase assay
- Condition info: CV-1 cells transfected with GAL4-hPPARγ LBD and UAStkLuc; at concentrations of 10^−6 M or less; read-out: agonism of the hPPARγ receptor (activation relative to full agonist rosiglitazone)
Counter-ions that a name gives are not always drawn.
Result type: Emax

The recorded Emax for entry CC(C)(C)c1ccc(-c2c(C(=O)O)n(Cc3cccc(N4CCN(S(C)(=O)=O)CC4)c3)c3ccccc23)cc1 equals 20 to 80%

For reference, reported Emax for COCCOc1cc(Cn2c(C(=O)O)c(-c3ccc(C(C)(C)C)cc3)c3ccccc32)cc(OCC2CC2)c1 stands at 20 to 80%

For COCCOc1cc(Cn2c(C(=O)O)c(-c3ccc(C(C)(C)C)cc3)c3ccccc32)cc(C(F)(F)F)c1 the compound record lists Emax as 20 to 80%

Per the records, this compound ( CCOC(=O)N1CCN(c2cccc(Cn3c(C(=O)O)c(-c4ccc(C(C)(C)C)cc4)c4ccccc43)c2)CC1 ) has Emax equal to 20 to 80%

For reference, reported Emax for COCCOc1cc(Cn2c(C(=O)O)c(Cc3cccc(C(F)(F)F)c3)c3ccccc32)cc(OCC2CC2)c1 stands at 20 to 80%

Note to self: Emax recorded for CC(C)(C)c1ccc(-c2c(C(=O)O)n(Cc3cccc(N4CCOCC4)c3)c3ccccc23)cc1 was 20 to 80%

Entry COCCOc1cc(Cn2c(C(=O)O)c(Nc3ccc(C(C)(C)C)cc3)c3ccccc32)cc(OCCOC)c1 — recorded Emax = 20 to 80%

The recorded Emax for COCCOc1cc(Cn2c(C(=O)O)c(-c3ccc(C(C)(C)C)cc3)c3ccccc32)cc(-c2ccc(C(=O)O)cc2)c1 is 20 to 80%

Entry CC(=O)c1ccc(-c2c(C(=O)O)n(Cc3cc(-c4ccc(C(=O)O)cc4)ccc3C)c3ccccc23)cc1 ; Emax = 20 to 80%

So, Cc1ccc(-c2ccc(O)cc2)cc1Cn1c(C(=O)O)c(-c2ccc(C(C)(C)C)cc2)c2ccccc21 ? Its Emax was 20 to 80%

Sample CC(C)(C)c1ccc(-c2c(C(=O)O)n(Cc3cccc(-c4ccc(O)cc4)c3)c3ccccc23)cc1 ; Emax observed: 20 to 80%

// Emax lookup, compound = CN(C)CCCOc1cc(Cn2c(C(=O)O)c(-c3ccc(C(C)(C)C)cc3)c3ccccc32)cc(OCC2CC2)c1 , result: 20 to 80%

Briefly, Emax measured for COCCOC(=O)N1CCN(c2cccc(Cn3c(C(=O)O)c(-c4ccc(C(C)(C)C)cc4)c4ccccc43)c2)CC1 : 20 to 80%

The recorded Emax for Cc1ccc(-c2ccc(OC(C)(C)C(=O)O)cc2)cc1Cn1c(C(=O)O)c(-c2ccc(C(C)(C)C)cc2)c2ccccc21 is 20 to 80%

Consider CC(C)(C)c1ccc(-c2c(C(=O)O)n(Cc3cc(OCC4CC4)cc(C(F)(F)F)c3)c3ccccc23)cc1 . Its measured Emax is 20 to 80%

Kindly note the recorded Emax for CC(C)(C)c1ccc(-c2c(C(=O)O)n(Cc3cccc(-c4ccc(OCc5ccccc5)cc4)c3)c3ccccc23)cc1 , which is 20 to 80%

Entry CC(C)OC(=O)N1CCN(c2cccc(Cn3c(C(=O)O)c(-c4ccc(C(C)(C)C)cc4)c4ccccc43)c2)CC1 ; Emax = 20 to 80%

The measured Emax associated with CC(C)(C)c1ccc(-c2c(C(=O)O)n(Cc3cccc(-c4cccc(S(C)(=O)=O)c4)c3)c3ccccc23)cc1 reads 20 to 80%

Entry under test: CNC(=O)c1cccc(-c2ccc(C)c(Cn3c(C(=O)O)c(-c4ccc(C(C)(C)C)cc4)c4ccccc43)c2)c1 . Its Emax was 20 to 80%

Record summary for CN(C)CCCOc1cc(Cn2c(C(=O)O)c(Cc3cccc(C(F)(F)F)c3)c3ccccc32)cc(OCC2CC2)c1 [Example 57, hydrochloride] : reported Emax = 20 to 80%

Short answer for COCCOc1cc(Cn2c(C(=O)O)c(-c3ccc(C(C)(C)C)cc3)c3ccccc32)cc(OC(=O)N2CCOCC2)c1 : Emax was 20 to 80%

Sample COc1cc(Cn2c(C(=O)O)c(-c3ccc(C(C)(C)C)cc3)c3ccccc32)cc(-c2ccc(C(=O)O)cc2)c1 ; Emax observed: 20 to 80%

Briefly, Emax measured for CC(C)(C)c1ccc(-c2c(C(=O)O)n(Cc3cccc(N4CCN(S(N)(=O)=O)CC4)c3)c3ccccc23)cc1 : 20 to 80%

Emax in this record for Cc1ccc(-c2ccc(C(=O)N(C)C)cc2)cc1Cn1c(C(=O)O)c(-c2ccc(C(C)(C)C)cc2)c2ccccc21 : 20 to 80%

For record Cc1ccc(-c2cccc(C(=O)NCCc3cccs3)c2)cc1Cn1c(C(=O)O)c(-c2ccc(C(C)(C)C)cc2)c2ccccc21 the listed Emax is 20 to 80%

Emax reading for CN(C)CCOc1cc(Cn2c(C(=O)O)c(-c3ccc(C(C)(C)C)cc3)c3ccccc32)cc(OCC2CC2)c1 : 20 to 80%

// sample Cc1ccc(-c2cccc(C(=O)NCc3cccs3)c2)cc1Cn1c(C(=O)O)c(-c2ccc(C(C)(C)C)cc2)c2ccccc21 , its Emax was 20 to 80%

Emax for CC(C)(C)c1ccc(-c2c(C(=O)O)n(Cc3cccc(N4CCSCC4)c3)c3ccccc23)cc1 is 20 to 80%
